- testedSystem: Mushroom tyrosinase (Agaricus bisporus)
- Sequence (G1K3P4 entry or part of it): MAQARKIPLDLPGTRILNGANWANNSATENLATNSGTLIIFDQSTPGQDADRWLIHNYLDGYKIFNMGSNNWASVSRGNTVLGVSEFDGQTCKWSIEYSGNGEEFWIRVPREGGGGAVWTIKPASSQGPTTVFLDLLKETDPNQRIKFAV
- Sequence (C7FF04 1-392): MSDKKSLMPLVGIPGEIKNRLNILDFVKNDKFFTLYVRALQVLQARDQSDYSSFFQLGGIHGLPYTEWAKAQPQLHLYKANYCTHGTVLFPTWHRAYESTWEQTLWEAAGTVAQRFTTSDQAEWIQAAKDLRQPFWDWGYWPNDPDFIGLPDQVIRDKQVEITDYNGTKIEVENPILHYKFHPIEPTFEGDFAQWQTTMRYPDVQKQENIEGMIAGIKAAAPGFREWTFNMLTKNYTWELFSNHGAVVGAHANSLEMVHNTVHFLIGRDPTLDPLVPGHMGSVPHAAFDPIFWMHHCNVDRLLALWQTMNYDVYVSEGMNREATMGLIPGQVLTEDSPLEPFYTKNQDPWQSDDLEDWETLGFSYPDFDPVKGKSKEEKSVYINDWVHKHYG
- testName: Mushroom tyrosinase inhibitory assay (spectrophotometric, L-tyrosine substrate)
- Assay type: biochemical
- details: qualitative statement; comparison with positive control kojic acid where stated
- Protocol: The compounds were firstly dissolved in DMSO at a concentration of 1.0 mg/mL and then diluted to different concentrations with DMSO. […] The reaction mixtures (3.0 mL) were vortexed and the initial absorbance at 492 nm was measured. After incubation for 20 min at 37 °C, the final absorbance at the same wavelength was taken. […] B1 is the absorbance at 492 nm of test sample at 0 min, B2 is the absorbance at 492 nm of test sample at 20 min.
observedProperty: Mushroom tyrosinase inhibitory activity, result in words

Example results:
Oc1cc(O)cc(-c2cc3ccc(O)cc3o2)c1 [Moracin M (14), moracin M]    much stronger
O=C1CC(c2ccc(O)cc2O)Oc2cc(O)cc(O)c21 (stereo not drawn) [Steppogenin (2), steppogenin]    much stronger
CC(C)=CCc1c(O)ccc(C(=O)/C=C/c2ccc(O)cc2O)c1O [Morachalcone A (4), morachalcone A]    much stronger
C=C(C)C(=O)Cc1c(-c2ccc(O)cc2O)oc2c3c(cc(O)c2c1=O)OC(C)(C)C=C3 [Morusone (1)]    weak
O=C(/C=C/c1ccc(O)cc1O)c1ccc(O)cc1O [2,4,2′,4′-Tetrahydroxychalcone (3), 2,4,2′,4′-Tetrahydroxychalcone]    much stronger

Problem: Answer with the recorded Mushroom tyrosinase inhibitory activity, result in words for the molecule listed here: Oc1cc(O)cc(/C=C/c2ccc(O)cc2O)c1 [Oxyresveratrol (5), oxyresveratrol]
Result: much stronger
